- targetSystem: T1, GST-GHR1 (LRR repeats of GUARD CELL HYDROGEN PEROXIDE-… 1, N-terminal GST fusion) (Arabidopsis thaliana)
- T1 sequence (C0LGQ9 whole entry, looked up): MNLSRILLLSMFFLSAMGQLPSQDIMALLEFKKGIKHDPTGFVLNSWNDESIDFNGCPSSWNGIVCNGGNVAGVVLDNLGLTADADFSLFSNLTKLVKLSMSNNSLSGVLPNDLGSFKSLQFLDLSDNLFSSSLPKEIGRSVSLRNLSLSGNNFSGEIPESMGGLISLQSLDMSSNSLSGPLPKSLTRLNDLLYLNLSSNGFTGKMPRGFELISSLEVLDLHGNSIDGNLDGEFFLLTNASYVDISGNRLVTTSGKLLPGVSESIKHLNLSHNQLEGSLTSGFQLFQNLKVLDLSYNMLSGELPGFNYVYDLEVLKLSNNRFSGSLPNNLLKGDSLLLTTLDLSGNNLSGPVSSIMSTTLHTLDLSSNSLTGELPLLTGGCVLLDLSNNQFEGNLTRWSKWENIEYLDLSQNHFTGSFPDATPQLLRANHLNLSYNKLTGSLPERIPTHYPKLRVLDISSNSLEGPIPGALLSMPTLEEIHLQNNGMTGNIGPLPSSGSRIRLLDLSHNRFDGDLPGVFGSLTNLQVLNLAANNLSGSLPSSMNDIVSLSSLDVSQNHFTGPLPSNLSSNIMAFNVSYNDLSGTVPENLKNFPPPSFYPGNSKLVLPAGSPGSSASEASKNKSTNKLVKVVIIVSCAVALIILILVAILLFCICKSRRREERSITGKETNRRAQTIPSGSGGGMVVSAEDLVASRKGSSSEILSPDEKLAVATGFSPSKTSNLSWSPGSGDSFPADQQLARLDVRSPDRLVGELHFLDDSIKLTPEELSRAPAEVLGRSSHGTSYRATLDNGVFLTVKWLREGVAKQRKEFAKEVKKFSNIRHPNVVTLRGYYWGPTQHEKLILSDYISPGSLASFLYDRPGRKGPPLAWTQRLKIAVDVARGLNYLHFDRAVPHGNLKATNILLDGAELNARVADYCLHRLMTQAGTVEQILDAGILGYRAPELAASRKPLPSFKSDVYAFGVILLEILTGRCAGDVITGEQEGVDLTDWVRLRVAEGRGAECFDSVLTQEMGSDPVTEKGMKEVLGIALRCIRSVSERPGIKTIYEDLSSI
- protocolText: ITC
Square brackets hold non-standard residues; d marks the D form. Ends that are not written are not given here. Hyp = O=C(O)[C@@H]1C[C@@H](O)CN1

{"binder": "RVS[Hyp]GG[Hyp]DPQHH [CLE5 dodecapeptide (CLE5p)]", "Kd, µM": 7.39}
